# SYSTEM: UniProt P97689
# MEASUREMENT PROTOCOL: Inhibition of rat UT-B expressed in MDCK cells
pIC50: −log10 of the molar value.
ENDPOINT LABEL: pIC50

O=C(Nc1cccc2ccc(=O)[nH]c12)c1ccc([N+](=O)[O-])o1 | 5.22
O=C(Nc1ccc2[nH]c(=O)ccc2c1)c1ccc([N+](=O)[O-])o1 | 5.91

a: O=C(Nc1ccc(NS(=O)(=O)c2ccc(F)cc2)cc1)c1ccc([N+](=O)[O-])o1
b: O=C1CCc2cc(NC(=O)c3ccc([N+](=O)[O-])o3)ccc2N1
Field: lower recorded pIC50 (choose a or b ) Answer with the label corresponding to your selection.
b

a: O=C(Nc1ccc(NS(=O)(=O)c2ccccc2)cc1)c1ccc([N+](=O)[O-])o1
b: O=C(Nc1ccc(NS(=O)(=O)c2cccc(F)c2)cc1)c1ccc([N+](=O)[O-])o1
c: CC(=O)Nc1ccc(NC(=O)c2ccc([N+](=O)[O-])o2)cc1
Thanks in advance: please rank these 3 entries by pIC50, highest to lowest. Please write the labels in the order that was asked for.
a, b, c
(a: 6.96, b: 6.18, c: 5.85)

I: O=C(Nc1ccc(NS(=O)(=O)c2cccc(Br)c2)cc1)c1ccc([N+](=O)[O-])o1
II: O=C(Nc1ccc(NS(=O)(=O)c2ccc(Cl)cc2)cc1)c1ccc([N+](=O)[O-])o1
From the recorded data, which exceeds the other in pIC50: I or II ? Respond with the label that goes with your answer.
II
(II: 6.37, I: 6.09)

---

Measured pIC50 values are reported for all entries that follow.
# SYSTEM: Urea transporter 1 (Mus musculus, UniProt Q8VHL0)
# Sequence (Q8VHL0 whole entry): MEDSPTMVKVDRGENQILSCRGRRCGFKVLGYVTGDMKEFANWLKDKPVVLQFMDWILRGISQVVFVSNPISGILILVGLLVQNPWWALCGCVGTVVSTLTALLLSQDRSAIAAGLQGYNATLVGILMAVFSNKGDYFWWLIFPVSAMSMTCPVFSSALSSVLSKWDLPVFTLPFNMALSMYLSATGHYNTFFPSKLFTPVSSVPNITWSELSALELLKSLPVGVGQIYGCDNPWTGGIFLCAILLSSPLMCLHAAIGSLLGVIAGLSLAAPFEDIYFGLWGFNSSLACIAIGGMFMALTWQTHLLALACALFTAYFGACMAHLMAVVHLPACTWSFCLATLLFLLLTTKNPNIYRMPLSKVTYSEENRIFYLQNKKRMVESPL
# MEASUREMENT PROTOCOL: Inhibition of mouse UT-B expressed in MDCK cells
pIC50: −log10 of the molar value.

CC(=O)Nc1ccc(NC(=O)c2ccc(C(=O)c3ccccc3)o2)cc1 | 5.01
O=C(Nc1cccc2[nH]c(=O)ccc12)c1ccc([N+](=O)[O-])o1 | < 5.00

// moving on: another record for pIC50
The reported value for CC(=O)Nc1ccc(NC(=O)c2ccc(C(=O)C(C)(C)C)o2)cc1 in terms of pIC50 is < 5.00

---

# MEASUREMENT PROTOCOL: AUC (0 to t) in Sprague-Dawley rat at 100 mg/kg, po by LC-MS/MS analysis
# Type: ADME, organism-based
# Set-up: dose 100 mg/kg
# COND: in vivo
ENDPOINT LABEL: AUC(0-t) (ng·h/mL)

P: CC(=O)Nc1ccc(NC(=O)c2ccc([N+](=O)[O-])o2)cc1
Q: CC(=O)Nc1ccc(NC(=O)c2ccc(C(C)=O)o2)cc1
Among P and Q , which shows a numerically higher AUC(0-t) result? Write the label of whichever entry you select.
Q
(Q: 6840 ng·h/mL, P: 78.1 ng·h/mL)

---

# MEASUREMENT PROTOCOL: in vivo
# COND: Sprague-Dawley, rat, po, 100 mg/kg
ENDPOINT LABEL: Tmax (min)
Form entry: value (min) — number only.

# compound CC(=O)Nc1ccc(NC(=O)c2ccc(C(C)=O)o2)cc1 ; its Tmax = 12.6

---

# SYSTEM: Urea transporter 1 (Rattus norvegicus, UniProt P97689)
# Sequence (P97689 whole entry): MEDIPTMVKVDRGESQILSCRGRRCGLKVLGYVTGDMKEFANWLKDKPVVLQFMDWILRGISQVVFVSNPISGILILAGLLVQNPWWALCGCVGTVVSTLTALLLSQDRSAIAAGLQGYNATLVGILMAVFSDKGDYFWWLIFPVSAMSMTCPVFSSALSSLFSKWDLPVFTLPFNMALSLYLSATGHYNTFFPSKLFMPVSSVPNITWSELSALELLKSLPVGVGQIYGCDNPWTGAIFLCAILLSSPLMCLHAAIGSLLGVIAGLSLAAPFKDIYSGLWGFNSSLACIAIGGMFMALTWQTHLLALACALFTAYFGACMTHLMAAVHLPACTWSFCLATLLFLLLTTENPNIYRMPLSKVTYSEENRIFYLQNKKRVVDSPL
# MEASUREMENT PROTOCOL: Inhibition of rat UT-B expressed in MDCK cells
pIC50: −log10 of the molar value.
ENDPOINT LABEL: pIC50

1: O=C(Nc1ccc(NS(=O)(=O)c2ccccc2C(F)(F)F)cc1)c1ccc([N+](=O)[O-])o1
2: O=C(Nc1ccc(NS(=O)(=O)c2cccc(C(F)(F)F)c2)cc1)c1ccc([N+](=O)[O-])o1
When their pIC50 values are compared, which is larger, 1 or 2 ? Lab note: record the label of whichever item you select.
1

---

# MEASUREMENT PROTOCOL: Bioavailability in Sprague-Dawley rat at 100 mg/kg, po by LC-MS/MS analysis
# Format: ADME, organism-based
# COND: in vivo
ENDPOINT LABEL: bioavailability (%)

P: CC(=O)Nc1ccc(NC(=O)c2ccc(C(C)=O)o2)cc1
Q: CC(=O)Nc1ccc(NC(=O)c2ccc([N+](=O)[O-])o2)cc1
Which value of bioavailability is smaller, the one for P or the one for Q ? Reply with the label of the item you choose.
Q
(Q: 4.38%, P: 15.8%)

---

# MEASUREMENT PROTOCOL: AUC (0 to infinity) in Sprague-Dawley rat at 100 mg/kg, po by LC-MS/MS analysis
# Type: ADME, organism-based
# Parameters: route oral, time infinity, dose 100 mg/kg
# COND: in vivo
ENDPOINT LABEL: AUC(0-inf) (ng·h/mL)
Reply with just the number (in ng·h/mL).

CC(=O)Nc1ccc(NC(=O)c2ccc([N+](=O)[O-])o2)cc1 yielded AUC(0-inf) of 82.5

---

# MEASUREMENT PROTOCOL: MRT in Sprague-Dawley rat at 100 mg/kg, po by LC-MS/MS analysis
# Type: ADME, organism-based
# COND: in vivo
ENDPOINT LABEL: MRT (h)

P: CC(=O)Nc1ccc(NC(=O)c2ccc([N+](=O)[O-])o2)cc1
Q: CC(=O)Nc1ccc(NC(=O)c2ccc(C(C)=O)o2)cc1
Which item exceeds the other in MRT, P or Q ? Mark your answer with the label of the selected entry.
Q

---

# SYSTEM: Urea transporter 1 (Mus musculus, UniProt Q8VHL0)
# MEASUREMENT PROTOCOL: Inhibition of mouse UT-B expressed in MDCK cells
pIC50: −log10 of the molar value.
ENDPOINT LABEL: pIC50

O=C(Nc1ccc(NS(=O)(=O)c2ccc(Cl)cc2)cc1)c1ccc([N+](=O)[O-])o1 | 6.16

1: O=C(Nc1ccc2[nH]c(=O)ccc2c1)c1ccc([N+](=O)[O-])o1
2: O=C(Nc1ccc(NS(=O)(=O)c2ccccc2)cc1)c1ccc([N+](=O)[O-])o1
I need your help: which of the pair 1 , 2 has higher pIC50? Identify your selection by its label.
2

---

# SYSTEM: UniProtKB Q8VHL0
# MEASUREMENT PROTOCOL: Inhibition of mouse UT-B expressed in MDCK cells
ENDPOINT LABEL: IC50 (nM)

O=C(Nc1ccc2ccc(=O)[nH]c2c1)c1ccc([N+](=O)[O-])o1 | 1500

A: O=C(Nc1ccc(NS(=O)(=O)c2ccccc2Cl)cc1)c1ccc([N+](=O)[O-])o1
B: O=C(Nc1ccc(NS(=O)(=O)c2cccc(C(F)(F)F)c2)cc1)c1ccc([N+](=O)[O-])o1
C: O=C(Nc1ccc(NS(=O)(=O)c2ccc(C(F)(F)F)cc2)cc1)c1ccc([N+](=O)[O-])o1
D: CC(=O)c1ccc(C(=O)Nc2ccc(NS(=O)(=O)c3ccccc3)cc2)o1
Ordering: ascending IC50. Provide the labels, sequenced as the question asks.
D, A, B, C
(D: 160 nM, A: 1050 nM, B: 2220 nM, C: 3470 nM)

1: CCS(=O)(=O)Nc1ccc(NC(=O)c2ccc([N+](=O)[O-])o2)cc1
2: O=C1CCc2cc(NC(=O)c3ccc([N+](=O)[O-])o3)ccc2N1
Just curious, which one has the larger IC50 reading, 1 or 2 ? Record your answer as the label of the chosen record.
2

A: O=C(Nc1ccc(NS(=O)(=O)c2cccc(Cl)c2)cc1)c1ccc([N+](=O)[O-])o1
B: O=C(Nc1ccc(NS(=O)(=O)c2ccccc2F)cc1)c1ccc([N+](=O)[O-])o1
Rank A against B by their IC50 values and give the higher one. Bench note: the answer is the label of the chosen record.
B
(B: 1680 nM, A: 1010 nM)

---

# SYSTEM: Urea transporter 1 (Rattus norvegicus)
# MEASUREMENT PROTOCOL: Inhibition of rat UT-B expressed in MDCK cells
# Type: cell-based
ENDPOINT LABEL: IC50 (nM)

O=C1Cc2cc(NC(=O)c3ccc([N+](=O)[O-])o3)ccc2N1 | 3170
O=C(Nc1ccc(NS(=O)(=O)c2ccc(C(F)(F)F)cc2)cc1)c1ccc([N+](=O)[O-])o1 | 2770
O=C(Nc1ccc(NS(=O)(=O)c2ccccc2F)cc1)c1ccc([N+](=O)[O-])o1 | 1040
O=C(Nc1ccc(NS(=O)(=O)c2cccc(Cl)c2)cc1)c1ccc([N+](=O)[O-])o1 | 750
O=C(Nc1ccc2ccc(=O)[nH]c2c1)c1ccc([N+](=O)[O-])o1 | 600

a: O=C(Nc1ccc(NS(=O)(=O)c2ccccc2Cl)cc1)c1ccc([N+](=O)[O-])o1
b: CC(=O)c1ccc(C(=O)Nc2ccc(NS(=O)(=O)c3ccccc3)cc2)o1
Sorting by IC50 in descending order, would a or b appear first? Answer by quoting the chosen item's label.
a
(a: 530 nM, b: 150 nM)

P: CC(=O)Nc1ccc(NC(=O)c2ccc(F)o2)cc1
Q: CCS(=O)(=O)Nc1ccc(NC(=O)c2ccc([N+](=O)[O-])o2)cc1
Select one. Lower IC50: P or Q Answer format: the label of the selected item.
Q
(Q: 280 nM, P: 6470 nM)
